assay: drug combination growth inhibition, ovarian cancer – cell-based, oncology-focused library, rucaparib conditional, profiling panel (AID 1508598); details: patient-derived ovarian cancer cells, CellTiter-Glo viability, 144 h; at 0.00122 µM; OCI-P5x cells; without rucaparib
The source made the active and inactive calls.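 How the source made its calls: active means normalized viability below 100% at a tested concentration; inactive means the rest.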
Choose the fitting class; nothing outside yes (active), no (inactive) is accepted.

{"Molecule": "CC(=O)O[C@@]1(C(C)=O)CC[C@H]2[C@@H]3C[C@H](C)C4=CC(=O)CC[C@]4(C)[C@@H]3CC[C@@]21C", "Assigned label": "no"}
{"Molecule": "C[C@H](O[C@H]1OCCN(Cc2n[nH]c(=O)[nH]2)[C@H]1c1ccc(F)cc1)c1cc(C(F)(F)F)cc(C(F)(F)F)c1", "Assigned label": "no"}
{"Molecule": "CCOC(=O)c1[nH]c2cc(Cl)ccc2c1C(C(=O)NC(C)(C)C)N(C=O)Cc1ccc(Cl)cc1 (configuration not stated)", "Assigned label": "yes"}

For CCOC(=O)c1cnc2ccc(-c3cncc(NS(=O)(=O)c4ccccc4)c3)cn12 , what call appears in the results of this test?
yes

Record request — test call for Nc1ncn([C@@H]2O[C@H](CO)[C@@H](O)[C@@H]2O)c(=O)n1
no

For CN(C)CCOc1ccc(-c2nc(-c3ccc4c(c3)CCC4=NO)c(-c3ccncc3)[nH]2)cc1 , what call appears in the results of this test?
yes

State the result this test recorded for CC[C@]1(O)C[C@@H]2CN(CCc3c([nH]c4ccccc34)[C@@](C(=O)OC)(c3cc4c(cc3OC)N(C=O)[C@H]3[C@@](O)(C(=O)OC)[C@H](OC(C)=O)[C@]5(CC)C=CCN6CC[C@@]43[C@@H]65)C2)C1 .
yes

Outcome? O=C(NCC1(c2nc(-c3ccccc3)cs2)CCOCC1)c1cccc(-c2noc(C(F)(F)F)n2)c1
no

Please indicate how the test categorized CC[C@]1(O)C[C@@H]2CN(CCc3c([nH]c4ccccc34)[C@@](C(=O)OC)(c3cc4c(cc3OC)N(C=O)[C@@H]3C45CCN4CC=C[C@](CC)([C@H]45)[C@H](OC(C)=O)[C@]3(O)C(=O)OC)C2)C1 (some centres not stated) .
yes

Kindly provide the recorded test outcome for the following molecule: COc1ccc(C2=N[C@@H](c3ccc(Cl)cc3)[C@H](c3ccc(Cl)cc3)N2C(=O)N2CCNC(=O)C2)c(OC(C)C)c1
yes

What did this assay record as the result for CC(=O)OCC(=O)[C@]1(O)[C@H](C)C[C@H]2[C@@H]3CCC4=CC(=O)C=C[C@]4(C)[C@]3(F)[C@H](O)C[C@@]21C ?
no

Outcome? Cc1cc(C)c(S(=O)(=O)n2cc(C)cc2C)c(C)c1
yes

Name the outcome recorded for CC(=O)O[C@@]1(C(C)=O)CC[C@H]2[C@@H]3C=C(C)C4=CC(=O)CC[C@]4(C)[C@@H]3CC[C@@]21C in the assay.
no

I'd appreciate the recorded outcome for CCc1c2c(nc3ccc(OC(=O)N4CCC(N5CCCCC5)CC4)cc13)-c1cc3c(c(=O)n1C2)COC(=O)[C@@]3(O)CC from this test.
no

I'd appreciate the recorded outcome for COc1ccccc1-c1cc(Nc2cccc(CS(N)(=O)=O)c2)ncn1 from this test.
yes

FYI, the data here is from PubChem BioAssay.
